Just for reference, patent US6875741 is where these values come from.

target: T1, soluble human insulin receptor-immunoglobulin heavy chain chimera (human, UniProt P06213 28-956); experiment: phage ELISA ratios compared
T1 construct: extracellular domain; Heterotetramer; also called IR; sIR-Fc; not shown: immunoglobulin heavy chain constant domains replacing the transmembrane and intr
parameter_measured: IR/IGF-1R ratio comparison

[[record]]
binder = "FFYDCLAALLQGVARYHDLCAVEIT [20C-4-C7-IGFR]"
parameter_measured = "IR/IGF-1R ratio comparison"
value_qualifier = "<"
endpoint_result = 0.1

[[record]]
binder = "GFREGNFYEWFQAQVT [E4Dα-4-H2-IR]"
parameter_measured = "IR/IGF-1R ratio comparison"
value_qualifier = "="
endpoint_result = 0.2

[[record]]
binder = "FFYRCLSRLLGGQLGSRLGLSCIGD [20C-3-E4-IGFR]"
parameter_measured = "IR/IGF-1R ratio comparison"
value_qualifier = "="
endpoint_result = 0.2

[[record]]
binder = "RGQSDAFYSGLWALIGLSDG [R20β-4-A6-IR]"
parameter_measured = "IR/IGF-1R ratio comparison"
value_qualifier = "="
endpoint_result = 0.1

